Where these numbers come from: paper PMC11071649

Each entry below carries its recorded IC50.
tested on: AGS gastric cancer cell; test: MTT anti-proliferative assay, AGS; assay type: cell-based, human; details: MTT, 48 h

{"smiles code": "N#C/C(=C\\c1ccc(F)cc1)c1ccc(C(F)(F)F)cc1", "IC50": "> 100 µM"}
{"smiles code": "N#C/C(=C\\c1ccc(Cl)cc1)c1ccc(C(F)(F)F)cc1", "IC50": "> 100 µM"}
{"smiles code": "CC(C)c1ccc(/C=C(\\C#N)c2ccc(C(F)(F)F)cc2)cc1", "IC50": "> 100 µM"}
{"smiles code": "COc1cc(/C=C(\\C#N)c2ccc(OC(F)(F)F)cc2)cc(OC)c1OC", "IC50": "> 100 µM"}
{"smiles code": "CCCCOc1ccc(/C=C(\\C#N)c2ccc(OC(F)(F)F)cc2)cc1", "IC50": "> 100 µM"}
{"smiles code": "N#C/C(=C\\c1ccco1)c1ccc(C(F)(F)F)cc1", "IC50": "> 100 µM"}
{"smiles code": "CN(C)c1ccc(/C=C(\\C#N)c2ccc(C(F)(F)F)cc2)cc1", "IC50": "> 100 µM"}
{"smiles code": "Cc1cc(C)c(/C=C(\\C#N)c2ccc(C(F)(F)F)cc2)c(C)c1", "IC50": "> 100 µM"}
{"smiles code": "CCCOc1ccc(/C=C(\\C#N)c2cccc(OC(F)(F)F)c2)cc1", "IC50": "> 100 µM"}
{"smiles code": "N#C/C(=C\\c1ccc(Br)cc1)c1ccc(OC(F)(F)F)cc1", "IC50": "19.6 µM"}
{"smiles code": "N#C/C(=C\\c1ccc(N2CCOCC2)cc1)c1ccc(OC(F)(F)F)cc1", "IC50": "> 100 µM"}
{"smiles code": "N#C/C(=C\\c1ccc(Br)cc1)c1ccc(C(F)(F)F)cc1", "IC50": "> 100 µM"}
{"smiles code": "N#C/C(=C\\c1ccc(F)cc1)c1cccc(OC(F)(F)F)c1", "IC50": "8.2 µM"}
{"smiles code": "N#C/C(=C\\c1ccc(/C=C/C(=O)c2ccc(F)cc2)cc1)c1ccc(OC(F)(F)F)cc1", "IC50": "25.3 µM"}
{"smiles code": "N#C/C(=C\\c1cccc(C(F)(F)F)c1)c1ccc(C(F)(F)F)cc1", "IC50": "> 100 µM"}
{"smiles code": "N#C/C(=C\\c1ccccc1C(F)(F)F)c1ccc(C(F)(F)F)cc1", "IC50": "> 100 µM"}
{"smiles code": "Cc1cc(C)c(/C=C(\\C#N)c2ccc(OC(F)(F)F)cc2)c(C)c1", "IC50": "> 100 µM"}
{"smiles code": "CCN(CC)c1ccc(/C=C(\\C#N)c2ccc(C)cc2)cc1", "IC50": "24.1 µM"}
{"smiles code": "N#C/C(=C\\c1ccc(Br)cc1)c1ccccc1OC(F)(F)F", "IC50": "16.7 µM"}
{"smiles code": "N#C/C(=C\\c1ccc(N2CCCC2)cc1)c1ccc(OC(F)(F)F)cc1", "IC50": "89.8 µM"}
{"smiles code": "N#C/C(=C\\c1ccccc1)c1cccc(OC(F)(F)F)c1", "IC50": "> 100 µM"}
{"smiles code": "Cc1cccc(/C=C(\\C#N)c2ccc(OC(F)(F)F)cc2)c1", "IC50": "> 100 µM"}
{"smiles code": "COc1ccc(/C(C#N)=C/c2ccc(N(C)C)cc2)cc1", "IC50": "> 100 µM"}
{"smiles code": "CC(C)c1ccc(/C=C(\\C#N)c2cccc(OC(F)(F)F)c2)cc1", "IC50": "> 100 µM"}
{"smiles code": "CCc1ccc(/C=C(\\C#N)c2cccc(OC(F)(F)F)c2)cc1", "IC50": "43.8 µM"}
{"smiles code": "Cc1ccc(/C=C(\\C#N)c2ccc(OC(F)(F)F)cc2)cc1", "IC50": "30.8 µM"}
{"smiles code": "CCN(CC)c1ccc(/C=C(\\C#N)c2cc(OC)c(OC)c(OC)c2)cc1", "IC50": "7.5 µM"}
{"smiles code": "N#C/C(=C\\c1ccccc1)c1ccccc1OC(F)(F)F", "IC50": "> 100 µM"}
{"smiles code": "CCc1ccc(/C=C(\\C#N)c2ccc(C(F)(F)F)cc2)cc1", "IC50": "> 100 µM"}
{"smiles code": "N#C/C(=C\\c1ccccn1)c1cccc(OC(F)(F)F)c1", "IC50": "15.4 µM"}
